Each record here notes measured EC50.
Molecular target: hMPV B1 F (human metapneumovirus)
Assay: ELISA on coated recombinant protein, OD 405 nm

# binder, EC50
rows = [
    ("MPV464 (antibody, V domains shown) VH: QVQLQESGPGLVKPSQTLSLTCTVSGGSVRGGGDYWSWIRRPPGKGLEWIGHIYNSGTTFYNPSLKSRVTISIDTSKNQFSLKLRSVTAADTAVYYCGRVGSRATGLPDWIDPWGQGTLVTVSS VL: SYELTQPPSVSVSPGQTATITCSGTNLGAKYSCWYQQKPGQSPVLVIFQDNKRASGIPARFSASTSGDTATLTISGTQVMDEADYFCQAWDSRTAVFGGGTTLTVL", "0.086 µg/mL"),
    ("MPV467 (antibody, V domains shown) VH: EVQLVESGGGVVRPGTSLRVSCAAFDFNFRDYGMHWVRQAPGKGLEWVAGIWYDGSNKDYADSVKGRFTISRDNSQNTLYLQMNSLRVEDTAVYYCARDPRTHREGALSHFDSWGQGTLVTVSS VL: PNELTQDPAVSVALGQTVRITCQGDSLRNYFAGWYQQKPGQAPLLVLYGENIRPSGIPDRFSGSSSGNTVSLTITGAQAEDEADYYCNSRDNSGNHWVFGGGTRLTVL", "0.12 µg/mL"),
    ("MPV86 (antibody, V domains shown) VH: QVQLVQSGAEVKKPGSSVKVSCKASGDTFNDVALSWVRQAPGQGLEWLGGIIPFFGTANYAQRFQDRVTITADASTSTAYLELGGLRSEDTAVYYCARGWSCRNITCFMMGYYFYIMDVWGQGTLVTVSS VL: LSLSPGERATLSCRASQSVGNFLAWYQQKPGQTPRLLIQDASNRATGIPARFSGTGSGTDFTLTISSLEPEDFAVYYCQQRSNWPPTFGPGTKVDIK", "0.073 µg/mL"),
]

Cited source: patent US20250188153A1
